meta.source: the Immune Epitope Database (IEDB)

# test system: HLA-A*02:01
# run description: IEDB peptide-MHC binding, purified MHC/direct/fluorescence; filed as Kd, often an IC50 or EC50 that approximates it; bounds were set here for any values at or beyond the usual limits of such assays
# condition label: source organism: Corynebacterium glutamicum
measured metric: pKd
Schema: pKd number; meaning minus log10 of the concentration expressed in molar units.

[Q] Entry `VLPVPGASV` , system HLA-A*02:01: what pKd was measured?
[A] 7.20

---

# test system: HLA-B*08:03
# run description: IEDB peptide-MHC binding, purified MHC/direct/fluorescence; filed as Kd, often an IC50 or EC50 that approximates it; bounds were set here for any values at or beyond the usual limits of such assays
# condition label: source organism: Influenza A virus (A/Quail/Shanghai/8/96(H9N2))
measured metric: Kd

[Q] Looking for the measured Kd of `LVGGREWSY` , can you help?
[A] ≥ 20 µM

---

# test system: HLA-A*03:01
# run description: IEDB peptide-MHC binding, purified MHC/direct/fluorescence; filed as Kd, often an IC50 or EC50 that approximates it; bounds were set here for any values at or beyond the usual limits of such assays
# condition label: source organism: Camelpox virus CMS
measured metric: Kd

[Q] Item `HYRPYHYYH` has what recorded Kd?
[A] ≥ 20 µM

---

# test system: HLA-B*44:02
# run description: IEDB peptide-MHC binding, purified MHC/direct/fluorescence; filed as Kd, often an IC50 or EC50 that approximates it; bounds were set here for any values at or beyond the usual limits of such assays
# condition label: source organism: Brucella suis
measured metric: Kd

[Q] If you can, please state the reported Kd value of `DVIGNDRQE` .
[A] ≥ 20 µM

---

# test system: HLA-A*69:01
# run description: IEDB peptide-MHC binding, purified MHC/direct/fluorescence; filed as Kd, often an IC50 or EC50 that approximates it; bounds were set here for any values at or beyond the usual limits of such assays
# condition label: source organism: Salmonella enterica subsp. enterica serovar Typhi
measured metric: Kd (nM)
Value expressed in nM; do not type the unit.

[Q] Kd of `QTDDGVRFT` on HLA-A*69:01?
[A] 70.3

---

# test system: HLA-A*29:02
# run description: IEDB peptide-MHC binding, purified MHC/competitive/radioactivity; filed as Kd, often an IC50 or EC50 that approximates it; bounds were set here for any values at or beyond the usual limits of such assays
# condition label: source organism: Mammarenavirus whitewaterense
measured metric: Kd
Reply with the number and its unit after it.

[Q] Kd for `RCWLTKNGSY` ?
[A] 8.92 µM

---

pKd by entry:
# test system: HLA-A*69:01
# run description: IEDB peptide-MHC binding, purified MHC/direct/fluorescence; filed as Kd, often an IC50 or EC50 that approximates it; bounds were set here for any values at or beyond the usual limits of such assays
# condition label: source organism: Rickettsia prowazekii
For clarity, pKd is expressed as the negative log10 of concentration in mol/L.

INSERT INTO results (sequence_chain, numeric_value) VALUES
  ('FGSGWTWVV', 5.93);

Now look at this entry.
[Q] pKd lookup needed for `VVGKPYKEV` , thanks.
[A] 6.22

---

# test system: HLA-A*02:01
# run description: IEDB peptide-MHC binding, purified MHC/competitive/fluorescence; bounds were set here for any values at or beyond the usual limits of such assays
# condition label: source organism: Vaccinia virus WR
measured metric: IC50 (nM)
State just the number; it will be interpreted in nM.

[Q] Quick one: IC50 for `MLIGIEILN` ?
[A] 554
